procedure details: absolute recovery over mixed-bed multilayer solid-phase extraction; higher = better recovery
condition parameters: wastewater effluent; enrichment method: SPE
The entries below come with measured absolute recovery values attached.
Be sure to follow the number with its unit.

Study these solved cases before continuing.
| compound | absolute recovery |
| --- | --- |
| Clc1ccc(C(c2ccccc2)N2CC[NH2+]CC2)cc1 (centres undefined) [1-[(4-Chlorophenyl)phenylmethyl]piperazine] | 85.4% |
| CCc1ccc(C(=O)NN(C(=O)c2cc(C)cc(C)c2)C(C)(C)C)cc1 | 98.7% |
| Cc1cccc(C)c1NC(=O)C1CCCC[NH+]1C (centres undefined) [Mepivacaine] | 80% |
| CCCC(C)(COC(N)=O)COC(=O)NC(C)C (centres undefined) | 93.1% |
| CC(=O)Nc1ccc(S(=O)(=O)[N-]c2ncccn2)cc1 | 89.2% |
| CCNc1nc(Cl)nc(NC(C)(C)C)n1 | 93.8% |

Incoming: Looking for the measured absolute recovery of CCOCN(C(=O)CCl)c1c(C)cccc1CC , can you help?
Outgoing: 91.1%

Incoming: Any idea what absolute recovery was measured for CCCCC(C#N)(Cn1cncn1)c1ccc(Cl)cc1 (centres undefined) ?
Outgoing: 94%

Incoming: Item COC=C(C(=O)OC)c1ccccc1COc1cccc(C(F)(F)F)n1 has what recorded absolute recovery?
Outgoing: 99.7%

###

Recorded absolute recovery by entry
procedure details: absolute recovery over mixed-bed multilayer solid-phase extraction; higher = better recovery
condition parameters: wastewater effluent; enrichment method: SPE
Field format: number, assumed %, no unit text.

| compound | test value |
| --- | --- |
| CCNc1nc(NCC)nc(OC)n1 [Simeton] | 85.7 |
| CCCC(NOCC)=C1C(=O)CC(C2CCCSC2)CC1=O (centres undefined) [Cycloxydim] | 76.3 |
| Cn1cc(C(=O)Nc2ccc(F)cc2-c2ccc(Cl)c(Cl)c2)c(C(F)F)n1 [Bixafen] | 102 |
| N#CC1CCCN1C(=O)C[NH2+]C12CC3CC(CC(O)(C3)C1)C2 (centres undefined) [Vildagliptin] | 92.8 |
| COc1nc(NC(C)C)nc(NC(C)C)n1 [Prometon F] | 91.6 |
| COCCOCCOCCOCCOC [Tetraglyme] | 83.5 |
| COC(=O)c1cc(C(=O)OC)cc(S(=O)(=O)[O-])c1 [Dimethyl-5-Sulfoisophthalate] | 96.6 |
| CN1C(=O)CN=C(c2ccccc2)c2cc(Cl)ccc21 [Diazepam] | 93.6 |

Incoming: Which measured absolute recovery value corresponds to NS(=O)(=O)Cc1noc2ccccc12 [Zonisamide] ?
Outgoing: 88.4

Incoming: Which absolute recovery reading was recorded for the compound CC(C)[NH2+]CC(O)COc1cccc2ccccc12 (centres undefined) [Propranolol] ?
Outgoing: 93.7

Incoming: Give the measured absolute recovery of NC1=C(Cl)C(=O)c2ccccc2C1=O [Quinoclamine] .
Outgoing: 92.6

Incoming: Give its absolute recovery value. Item: COc1ccc2c(c1)c(CC(=O)[O-])c(C)n2C(=O)c1ccc(Cl)cc1 [Indomethacin]
Outgoing: 91.2

Incoming: Could you share which absolute recovery value was measured for COc1ccc(CN(CC[NH+](C)C)c2ccccn2)cc1 [Pyrilamine] ?
Outgoing: 87.3

Incoming: Using the record for CCC1OC(=O)C(C)C(OC2CC(C)(OC)C(O)C(C)O2)C(C)C(OC2OC(C)CC([NH+](C)C)C2O)C(C)(O)CC(C)C(=NOCOCCOC)C(C)C(O)C1(C)O (centres undefined) [Roxithromycin] , report its absolute recovery.
Outgoing: 87.5

Incoming: Suppose we examine the compound NS(=O)(=O)c1cc(C2(O)NC(=O)c3ccccc32)ccc1Cl (centres undefined) [Chlorthalidon] ; what absolute recovery value has been reported?
Outgoing: 96.5

###

procedure details: absolute recovery over vacuum-assisted evaporative concentration; higher = better recovery
condition parameters: wastewater effluent; enrichment method: VEC
Recorded absolute recovery, one value per entry.
Could you give me the number in %? Just the number is fine.

Some compounds with recorded absolute recovery:
| compound | absolute recovery [%] |
| --- | --- |
| CC12CCC3=C4CCC(=O)C=C4CCC3C1CCC2(O)CC#N (centres undefined) | 97.4 |
| C=CS(=O)(=O)[O-] | 103 |
| Clc1ccccc1C(c1ccccc1)(c1ccccc1)n1ccnc1 | 111 |

Incoming: State the recorded absolute recovery for this entry: CNC(=O)Nc1ccc(Cl)c(Cl)c1
Outgoing: 105

Incoming: Entry CCOc1cc(CC(=O)NC(CC(C)C)c2ccccc2N2CCCCC2)ccc1C(=O)[O-] (centres undefined) [Repaglinide] has what absolute recovery?
Outgoing: 120

###

procedure details: absolute recovery over mixed-bed multilayer solid-phase extraction; higher = better recovery
condition parameters: wastewater influent; enrichment method: SPE
quantity name: absolute recovery (%)
Kindly provide the numeric value in % only, without the unit symbol.

Worked examples follow.
| molecule | quantity name | test value |
| --- | --- | --- |
| COC(=O)NC(C(=O)NC(Cc1ccccc1)C(O)CN(Cc1ccc(-c2ccccn2)cc1)NC(=O)C(NC(=O)OC)C(C)(C)C)C(C)(C)C (centres undefined) | absolute recovery | 95.1 |
| N#CCNC(=O)c1cnccc1C(F)(F)F | absolute recovery | 96 |
| CNC(=C[N+](=O)[O-])NCCSCc1ccc(C[N+](C)(C)[O-])o1 | absolute recovery | 73.7 |
| CNC(=O)ON=C(C)SC | absolute recovery | 79.3 |
| Cc1cc(C(C)(C)C)cc(C)c1CC1=[NH+]CCN1 | absolute recovery | 97.2 |
| c1ccc2[nH]c(-c3cscn3)nc2c1 | absolute recovery | 92.3 |

Incoming: Given the molecule COC(=O)C1C2CC3c4[nH]c5cc(OC)ccc5c4CC[NH+]3CC2CC(OC(=O)c2cc(OC)c(OC)c(OC)c2)C1OC (centres undefined) , what is its reported absolute recovery?
Outgoing: 64.2

Incoming: May I ask what absolute recovery has been recorded for Cc1cccc(N(C)C(=S)Oc2ccc3ccccc3c2)c1 ?
Outgoing: 73.4

Incoming: Record request: absolute recovery value, item O=C([O-])C=C(F)C(F)(F)C(F)(F)C(F)(F)C(F)(F)C(F)(F)F
Outgoing: 77.9

Incoming: What value of measured absolute recovery is listed for CCC(CC)OC1C=C(C(=O)[O-])CC([NH3+])C1NC(C)=O (centres undefined) ?
Outgoing: 60.1

Incoming: absolute recovery lookup needed for CC(C)Nc1nc(N)nc(O)n1 [Atrazin-desethyl-2-hydroxy] , thanks.
Outgoing: 92.3

Incoming: Query (molecule): CC([NH2+]C(C)(C)C)C(=O)c1cccc(Cl)c1 (centres undefined) ; field requested: absolute recovery
Outgoing: 78.3

Incoming: Given the entry N#CN=C1SCCN1Cc1ccc(Cl)nc1 , report its measured absolute recovery.
Outgoing: 87.5

###

procedure details: absolute recovery over mixed-bed multilayer solid-phase extraction; higher = better recovery
condition parameters: surface water; enrichment method: SPE
Overview of recorded absolute recovery for various compounds
Quick note: give the figure in %, leave out the unit.

| compound | unit label | test value |
| --- | --- | --- |
| O=C1NCCN1Cc1ccc(Cl)nc1 [Imidacloprid-urea] | % | 108 |

Incoming: Please look up its absolute recovery: CC(C)(C(=O)[O-])c1ccc(C(O)CCC[NH+]2CCC(C(O)(c3ccccc3)c3ccccc3)CC2)cc1 (centres undefined) [Fexofenadin]
Outgoing: 99.3

Incoming: Could you tell me which absolute recovery is on file for CC(=O)Nc1c(I)c(NC(C)=O)c(I)c(C(=O)[O-])c1I [Diatrizoate (=Amidotrizoic-acid)] ?
Outgoing: 74.5

Incoming: Name the reported absolute recovery value associated with the compound Nc1cn[nH+]c([O-])c1Cl [Chloridazon-desphenyl]
Outgoing: 67.9

Incoming: Endpoint output: absolute recovery of CC#Cc1cc(C)nc(Nc2ccccc2)n1 [Mepanipyrim] . Value?
Outgoing: 107

###

Catalogue of absolute recovery values
procedure details: absolute recovery over mixed-bed multilayer solid-phase extraction; higher = better recovery
condition parameters: wastewater influent; enrichment method: SPE
I only need the number, in %, no unit after it.

Below, each entry is followed by its recorded absolute recovery result.
| compound | absolute recovery (%) |
| --- | --- |
| CCc1cccc(C)c1N(C(=O)CCl)C(C)COC (stereo not given) | 92.5 |
| C=CC(=O)OCCOC(=O)CCC(=O)[O-] [Mono(2-acryloyloxyethyl)-succinate] | 53.1 |
| CS(=O)(=O)c1ccc(C(=O)[C-]2C(=O)CCCC2=O)c([N+](=O)[O-])c1 | 80.1 |
| Cn1ncc(N)c(Cl)c1=O | 101 |
| Cc1cc(C)cc(OCC2CNC(=O)O2)c1 (stereo not given) | 87.9 |
| C[NH+](C)CC(c1ccc(O)cc1)C1(O)CCCCC1 (stereo not given) | 77.7 |

Incoming: Sample C[NH2+]CCCC(C#N)(c1ccc(OC)c(OC)c1)C(C)C (stereo not given) — what was its absolute recovery?
Outgoing: 81.5

Incoming: Looking for the measured absolute recovery of COc1cc([N-]S(=O)(=O)c2ccc(N)cc2)nc(OC)n1 , can you help?
Outgoing: 90

Incoming: What value of absolute recovery has been recorded for this entry: COC(=O)c1ccccc1S(N)(=O)=O
Outgoing: 91.4

Incoming: # get_value(readout='absolute recovery', item= CC=CC(=O)N(CC)c1ccccc1C )
Outgoing: 91.5

Data origin: the supplement of paper PMC6470124
